Test system: MCF7
Experiment: Cytotoxicity against Pgp deficient human MCF7 cells after 72 hrs by sulforhodamine B test
Format: functional, cell-based
Settings: MCF7, 72 h
Readout kind: IC50 (nM)

[
  {
    "Chem smiles": "CCC(=O)O[C@H]1C(=O)[C@@]2(C)[C@H]([C@H](OC(=O)c3cccc(OC)c3)[C@]3(O)C[C@H](OC(=O)[C@H](O)[C@H](C=C(C)C)NC(=O)C4CC4)C(C)=C1C3(C)C)[C@]1(OC(C)=O)CO[C@@H]1C[C@@H]2O",
    "Readout value": 0.5
  },
  {
    "Chem smiles": "CCC(=O)O[C@H]1C(=O)[C@@]2(C)[C@H]([C@H](OC(=O)c3cccc(N=[N+]=[N-])c3)[C@]3(O)C[C@H](OC(=O)[C@H](O)[C@H](C=C(C)C)NC(=O)OC(C)(C)C)C(C)=C1C3(C)C)[C@]1(OC(C)=O)CO[C@@H]1C[C@@H]2O",
    "Readout value": 0.9
  },
  {
    "Chem smiles": "C=CCC[C@H](NC(=O)OC(C)(C)C)[C@@H](O)C(=O)O[C@H]1C[C@@]2(O)[C@@H](OC(=O)c3cccc(OC)c3)[C@@H]3[C@]4(OC(C)=O)CO[C@@H]4C[C@H](O)[C@@]3(C)C(=O)[C@H](OC(=O)CC)C(=C1C)C2(C)C",
    "Readout value": 2
  },
  {
    "Chem smiles": "CCC(=O)O[C@H]1C(=O)[C@@]2(C)[C@H]([C@H](OC(=O)c3cccc(OC)c3)[C@]3(O)C[C@H](OC(=O)[C@H](O)[C@H](CC(C)C)NC(=O)OC4CCCC4)C(C)=C1C3(C)C)[C@]1(OC(C)=O)CO[C@@H]1C[C@@H]2O",
    "Readout value": 0.17
  },
  {
    "Chem smiles": "CCC(=O)O[C@H]1C(=O)[C@@]2(C)[C@H]([C@H](OC(=O)c3ccccc3)[C@]3(O)C[C@H](OC(=O)[C@H](O)[C@H](C=C(C)C)NC(=O)C4CCC4)C(C)=C1C3(C)C)[C@]1(OC(C)=O)CO[C@@H]1C[C@@H]2O",
    "Readout value": 1.2
  },
  {
    "Chem smiles": "COC(=O)O[C@H]1C(=O)[C@@]2(C)[C@H]([C@H](OC(=O)c3cccc(OC)c3)[C@]3(O)C[C@H](OC(=O)[C@H](O)[C@H](C=C(C)C)NC(=O)OC(C)(C)C)C(C)=C1C3(C)C)[C@]1(OC(C)=O)CO[C@@H]1C[C@@H]2O",
    "Readout value": 0.4
  },
  {
    "Chem smiles": "COc1cccc(C(=O)O[C@H]2[C@@H]3[C@]4(OC(C)=O)CO[C@@H]4C[C@H](O)[C@@]3(C)C(=O)[C@H](OC(C)=O)C3=C(C)[C@@H](OC(=O)[C@H](O)[C@H](C=C(C)C)NC(=O)OC(C)(C)C)C[C@]2(O)C3(C)C)c1",
    "Readout value": 0.8
  },
  {
    "Chem smiles": "COc1ccc(CC(=O)O[C@H]2C(=O)[C@@]3(C)[C@H]([C@H](OC(=O)c4cccc(OC)c4)[C@]4(O)C[C@H](OC(=O)[C@H](O)[C@H](C=C(C)C)NC(=O)OC(C)(C)C)C(C)=C2C4(C)C)[C@]2(OC(C)=O)CO[C@@H]2C[C@@H]3O)cc1",
    "Readout value": 0.6
  },
  {
    "Chem smiles": "CCC(=O)O[C@H]1C(=O)[C@@]2(C)[C@H]([C@H](OC(=O)c3cccc(OC)c3)[C@]3(O)C[C@H](OC(=O)[C@H](O)[C@H](C=C(C)C)NC(=O)OC(C)(C)C)C(C)=C1C3(C)C)[C@]1(OC(C)=O)CO[C@@H]1C[C@@H]2O",
    "Readout value": 0.36
  },
  {
    "Chem smiles": "CCC(=O)O[C@H]1C(=O)[C@@]2(C)[C@H]([C@H](OC(=O)c3ccccc3)[C@]3(O)C[C@H](OC(=O)[C@H](O)[C@H](CC(C)C)NC(=O)OC4CCCCC4)C(C)=C1C3(C)C)[C@]1(OC(C)=O)CO[C@@H]1C[C@@H]2O",
    "Readout value": 1.4
  },
  {
    "Chem smiles": "COc1cccc(C(=O)O[C@H]2[C@@H]3[C@]4(OC(C)=O)CO[C@@H]4C[C@H](O)[C@@]3(C)C(=O)[C@H](OC(=O)OCc3ccccc3)C3=C(C)[C@@H](OC(=O)[C@H](O)[C@H](C=C(C)C)NC(=O)OC(C)(C)C)C[C@]2(O)C3(C)C)c1",
    "Readout value": 0.2
  },
  {
    "Chem smiles": "CCC(=O)O[C@H]1C(=O)[C@@]2(C)[C@H]([C@H](OC(=O)c3cccc(OC)c3)[C@]3(O)C[C@H](OC(=O)[C@H](O)[C@H](C=C(C)C)NC(=O)C4CCC4)C(C)=C1C3(C)C)[C@]1(OC(C)=O)CO[C@@H]1C[C@@H]2O",
    "Readout value": 0.8
  },
  {
    "Chem smiles": "CCC(=O)O[C@H]1C(=O)[C@@]2(C)[C@H]([C@H](OC(=O)c3ccccc3)[C@]3(O)C[C@H](OC(=O)[C@H](O)[C@H](C=C(C)C)NC(=O)OC4CCCCC4)C(C)=C1C3(C)C)[C@]1(OC(C)=O)CO[C@@H]1C[C@@H]2O",
    "Readout value": 1.4
  },
  {
    "Chem smiles": "CCC(=O)O[C@H]1C(=O)[C@@]2(C)[C@H]([C@H](OC(=O)c3ccccc3)[C@]3(O)C[C@H](OC(=O)[C@H](O)[C@H](C=C(C)C)NC(=O)C4=CCCC4)C(C)=C1C3(C)C)[C@]1(OC(C)=O)CO[C@@H]1C[C@@H]2O",
    "Readout value": 0.4
  },
  {
    "Chem smiles": "CCC(=O)O[C@H]1C(=O)[C@@]2(C)[C@H]([C@H](OC(=O)c3ccccc3)[C@]3(O)C[C@H](OC(=O)[C@H](O)[C@H](C=C(C)C)NC(=O)C4CCCC4)C(C)=C1C3(C)C)[C@]1(OC(C)=O)CO[C@@H]1C[C@@H]2O",
    "Readout value": 1.1
  },
  {
    "Chem smiles": "CCC(=O)O[C@H]1C(=O)[C@@]2(C)[C@H]([C@H](OC(=O)c3cccc(OC)c3)[C@]3(O)C[C@H](OC(=O)[C@H](O)[C@H](CC(C)C)NC(=O)C4CC4)C(C)=C1C3(C)C)[C@]1(OC(C)=O)CO[C@@H]1C[C@@H]2O",
    "Readout value": 0.4
  },
  {
    "Chem smiles": "CCC(=O)O[C@H]1C(=O)[C@@]2(C)[C@H]([C@H](OC(=O)c3ccccc3)[C@]3(O)C[C@H](OC(=O)[C@H](O)[C@H](CC(C)C)NC(=O)C4CCCCC4)C(C)=C1C3(C)C)[C@]1(OC(C)=O)CO[C@@H]1C[C@@H]2O",
    "Readout value": 1.5
  }
]
